Experiment: recombinant UMI read abundance after kanamycin selection (control-corrected) (log10(CPM+1)); higher = more efficient recombination; extreme values may be limits of the assay; sequences stand for … in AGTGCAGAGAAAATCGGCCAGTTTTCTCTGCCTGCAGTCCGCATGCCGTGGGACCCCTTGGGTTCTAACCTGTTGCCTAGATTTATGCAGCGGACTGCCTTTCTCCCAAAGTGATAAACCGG…AGGTTGGTTTCACT; site = the 11-nt donor;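 also: IS621 bridge recombinase in Escherichia coli cells against a fixed T5 target plasmid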
Please go through the items and note down their recombinant UMI read abundance (log10).
Numbers only.

Reference set, count: 3
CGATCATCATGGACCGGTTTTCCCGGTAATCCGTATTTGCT (site CGATCGCCTAG) :: 0.00385
ACGAAAACATGGACCGGTTTTCCCGGTAATCCGTATTTGCT (site ACGAAAACTAG) :: 1.81
CGCCGTACATGGACCGGTTTTCCCGGTAATCCGTATTTGTT (site CGCCGTACTAG) :: 0.486

Look at each sequence and report its recombinant UMI read abundance (log10).
1. GTAGTCGCATGGACCGGTTTTCCCGGTAATCCGTATTTGTG (site GTAGTCGCTCC)
2. AAATCTACATGGACCGGTTTTCCCGGTAATCCGTATTTGTG (site AGATCTACTCA)
3. CTATACACATGGACCGGTTTTCCCGGTAATCCGTATTTGCT (site CTCTACACTAG)
4. TTCTCCGCATGGACCGGTTTTCCCGGTAATCCGTATTTGAA (site TTCTCCGCTTT)

1: 0.438; 2: 0.0155; 3: 1.53; 4: 0.0825

Look at each sequence and report its recombinant UMI read abundance (log10).
1. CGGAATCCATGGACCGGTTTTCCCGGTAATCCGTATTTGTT (site CTGAATGCTAA)
2. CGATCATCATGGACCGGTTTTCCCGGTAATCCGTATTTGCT (site CGAGCTTCTAG)

0.00589
0

Look at each sequence and report its recombinant UMI read abundance (log10).
1. TCATATTCATGGACCGGTTTTCCCGGTAATCCGTATTTGCA (site TCATAATCTTG)
2. GTCCCCACATGGACCGGTTTTCCCGGTAATCCGTATTTGCC (site GTCCCCACTGG)
3. AAACACGCATGGACCGGTTTTCCCGGTAATCCGTATTTGGG (site AACCACGCTCC)
4. TCATACTCATGGACCGGTTTTCCCGGTAATCCGTATTTGAA (site TCATACTCTTG)
5. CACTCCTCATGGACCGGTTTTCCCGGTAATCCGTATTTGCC (site CACCCCTCTGG)
6. CACCTGCCATGGACCGGTTTTCCCGGTAATCCGTATTTGTC (site CACCTGCCTGA)
7. AAAACTGCATGGACCGGTTTTCCCGGTAATCCGTATTTGAA (site AAAACTGCTTT)

1. 1.5
2. 2.05
3. 0.0138
4. 0
5. 2.8
6. 0
7. 0.637

Look at each sequence and report its recombinant UMI read abundance (log10).
1. CGGAATCCATGGACCGGTTTTCCCGGTAATCCGTATTTGTG (site CGGAATCCTCA)
2. AATGTGTCATGGACCGGTTTTCCCGGTAATCCGTATTTGAG (site AATGTGTCTTT)
3. TGAAGCTCATGGACCGGTTTTCCCGGTAATCCGTATTTGGG (site TGAAGCTCTCC)
4. CACGCAGCATGGACCGGTTTTCCCGGTAATCCGTATTTGCT (site CAAGCAGCTAG)

0.656
0.832
0.0156
0

meta.source: the supplement of paper PMC11208160
